Attribution: PubChem BioAssay (NCI)

Tested on: SK-MEL-5 melanoma
Test: NCI-60 one-dose screen, 48 h (100 = growth as untreated, 0 = no growth, -100 = all killed)
Details: 10 µM unless noted
About 83,000 compounds went through this panel and 20% of them were active in at least one assay; those are over-represented in the sample as a whole.
Each record here notes measured growth.
MEASUREMENT LABEL: growth (%)

INSERT INTO assay_data (compound, measurement_label, unit_symbol, readout_value) VALUES
  ('CNCCNc1nc2ccccc2c2c(=O)c3cccc(OC)c3sc12', 'growth', '%', 57.9),
  ('COc1ccc(/C=C/C(=O)c2c(C)nc3ccccc3c2/C=C/c2ccccc2)c(OC)c1', 'growth', '%', 85.7),
  ('CN(C)/C=C1\SC(=Nc2ccc(Cl)cc2)NC1=O', 'growth', '%', 97),
  ('COc1cc(C=C2C(=O)N(C)C(=O)N(C)C2=O)cc(CN2CCCCC2)c1O', 'growth', '%', 100),
  ('COc1cc2nc(-c3cccc4cccnc34)nc(NC3CCN(Cc4ccccc4)CC3)c2cc1OC', 'growth', '%', -96.8),
  ('COc1ccc(Cn2c(Br)c3c(c2-c2cc(OC)c(OC)c(OC)c2)CCc2sc(NC(C)=O)nc2-3)cc1', 'growth', '%', 16.6),
  ('O=Cc1cc2ccccc2nc1Nc1nccs1', 'growth', '%', 82.2),
  ('CC(C)(C)c1ccc(C2CC(=O)C3=C(C2)Nc2ccccc2N(C(=O)c2ccccc2Cl)C3c2ccc(F)cc2)cc1 (stereo not given)', 'growth', '%', -97.5),
  ('O=C(CSc1ccc2nnc(-c3cccc(F)c3)n2n1)Nc1ccc2c(c1)OCO2', 'growth', '%', 86.1),
  ('O=NN(Cc1cccnc1)C(=O)NC1CCCCC1', 'growth', '%', 102),
  ('O=C(Nc1ccccc1O)c1ccc(-c2ccc(Cl)cc2Cl)o1', 'growth', '%', 85.9),
  ('Cc1cc2c(c(C)c1Cl)C(=O)/C(=C/c1cccc([N+](=O)[O-])c1)O2', 'growth', '%', 96.6),
  ('COc1ccc2sc(N(Cc3cccnc3)C(=O)c3ccc(C#N)cc3)nc2c1', 'growth', '%', 80.9),
  ('O=C1CCC(N2C(=O)c3cccc(NCCCCCCOc4ccc(Nc5nccc(Nc6ccccc6)n5)cc4)c3C2=O)C(=O)N1 (stereo not given)', 'growth', '%', 7.47),
  ('FC(F)(F)c1cccc(Nc2nc(-c3ccccc3)nc3ncccc23)c1', 'growth', '%', -91.4),
  ('O=c1cc(-c2ccccc2)oc2cc(OCc3cn(Cc4ccc(F)cc4)nn3)cc(OCc3cn(Cc4ccc(F)cc4)nn3)c12', 'growth', '%', 17.1),
  ('O=C(Nc1ccc(Cl)cc1F)c1cc(F)ccc1O', 'growth', '%', -84.4),
  ('O=c1c(-c2nc3ccccc3[nH]2)cc2ccccc2n1Cc1cn(Cc2ccccc2Cl)nn1', 'growth', '%', 0.0348),
  ('COc1cc(/C=C2\CCC/C(=C\c3cc(CN4CCCCC4)c(O)c(OC)c3)C2=O)cc(CN2CCCCC2)c1O', 'growth', '%', 92.6),
  ('Nc1nc(N)c2c(n1)NC1(C=C(O)c3ccccc31)C1=C(N2)c2ccccc2C1=O (stereo not given)', 'growth', '%', 108);
